# TESTED TARGET: human ether-à-go-go-related gene (hERG) potassium channel (human);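 note: peak tail current of the secondary pulse compared with the same well before compound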
# MEASUREMENT PROTOCOL: primary screen, population patch clamp on CHO cells stably expressing hERG; higher = less effect of the substance
The whole screen tested about 310,000 compounds, of which about 14,000 (4.5%) showed an effect of 50% or more. The effect is printed as a negative number. Shown is part of a subset that was picked to be rich in strong results.
Is hERG current change (%, negative = inhibition) at 10uM at least -10%? Then Satisfied. If not, Not satisfied.

CHEM SMILES	CAT
NC(=O)C1CCN(CCC(=O)Nc2ccc(F)c(F)c2)CC1	Satisfied

-- ask hey, is hERG current change (%, negative = inhibition) at 10uM for this one >= -10%? OCCN(Cc1ccccc1)Cc1ccc(Cl)cc1
-- reply Not satisfied

-- ask hey, is hERG current change (%, negative = inhibition) at 10uM for this one >= -10%? O=c1c2ccccc2c(C=NCCc2ccccc2)c(O)n1Cc1ccccc1
-- reply Satisfied

-- ask hey, is hERG current change (%, negative = inhibition) at 10uM for this one >= -10%? OCCN(Cc1ccccc1)Cc1ccc(Cl)cc1Cl
-- reply Not satisfied

###

# TESTED TARGET: human ether-à-go-go-related gene (hERG) potassium channel (human);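 note: peak tail current of the secondary pulse compared with the same well before compound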
# MEASUREMENT PROTOCOL: primary screen, population patch clamp on CHO cells stably expressing hERG; higher = less effect of the substance
About 14,000 (4.5%) of roughly 310,000 compounds showed an effect of 50% or more. The effect is printed as a negative number. The sample as a whole holds a higher share of strong results than the screen did.
Listing of recorded hERG current change (%, negative = inhibition) at 10uM by entry.
Provide the reading as a plain figure in %.

Record CCc1ccc(-c2cc(C(=O)NCCCn3ccnc3)c3ccccc3n2)s1 . Reported hERG current change (%, negative = inhibition) at 10uM: -73.6

Record CCc1ccc(-c2cc(C(=O)NCc3ccco3)c3ccccc3n2)s1 . Reported hERG current change (%, negative = inhibition) at 10uM: -9.4

###

Listing of recorded hERG current change (%, negative = inhibition) at 10uM by entry.
# TESTED TARGET: human ether-à-go-go-related gene (hERG) potassium channel (human, UniProt Q12809);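 note: peak tail current of the secondary pulse compared with the same well before compound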
# Sequence (Q12809 whole entry, looked up): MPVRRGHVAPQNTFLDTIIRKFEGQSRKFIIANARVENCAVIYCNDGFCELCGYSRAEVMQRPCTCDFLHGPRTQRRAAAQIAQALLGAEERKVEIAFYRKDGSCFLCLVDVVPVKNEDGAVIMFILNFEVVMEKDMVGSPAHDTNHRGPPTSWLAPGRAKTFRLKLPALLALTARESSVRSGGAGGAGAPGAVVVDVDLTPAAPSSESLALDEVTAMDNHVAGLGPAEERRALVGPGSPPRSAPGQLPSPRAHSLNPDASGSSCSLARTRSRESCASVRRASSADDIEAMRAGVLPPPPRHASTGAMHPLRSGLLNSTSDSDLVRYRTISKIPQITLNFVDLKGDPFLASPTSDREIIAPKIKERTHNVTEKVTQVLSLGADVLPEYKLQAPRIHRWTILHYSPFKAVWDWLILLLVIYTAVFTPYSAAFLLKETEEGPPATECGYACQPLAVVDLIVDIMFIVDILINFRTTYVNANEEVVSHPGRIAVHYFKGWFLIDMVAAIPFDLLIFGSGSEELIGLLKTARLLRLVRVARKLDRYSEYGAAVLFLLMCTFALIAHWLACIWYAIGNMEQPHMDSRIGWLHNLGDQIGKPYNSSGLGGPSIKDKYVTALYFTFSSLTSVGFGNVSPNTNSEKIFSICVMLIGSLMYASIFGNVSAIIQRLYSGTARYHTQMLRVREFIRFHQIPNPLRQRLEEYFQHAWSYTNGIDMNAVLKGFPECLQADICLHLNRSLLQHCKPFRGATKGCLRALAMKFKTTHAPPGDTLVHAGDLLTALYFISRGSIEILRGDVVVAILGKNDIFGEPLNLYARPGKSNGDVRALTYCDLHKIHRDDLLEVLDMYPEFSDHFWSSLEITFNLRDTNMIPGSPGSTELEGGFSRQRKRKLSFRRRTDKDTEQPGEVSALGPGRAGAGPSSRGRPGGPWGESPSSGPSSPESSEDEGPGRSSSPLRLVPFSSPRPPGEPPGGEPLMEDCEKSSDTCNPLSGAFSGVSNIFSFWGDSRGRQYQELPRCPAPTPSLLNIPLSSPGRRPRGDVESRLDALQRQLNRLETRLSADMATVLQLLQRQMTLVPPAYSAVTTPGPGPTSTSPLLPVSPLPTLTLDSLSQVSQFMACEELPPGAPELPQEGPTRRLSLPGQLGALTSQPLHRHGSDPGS
# MEASUREMENT PROTOCOL: primary screen, population patch clamp on CHO cells stably expressing hERG; higher = less effect of the substance
The whole screen tested about 310,000 compounds, of which about 14,000 (4.5%) showed an effect of 50% or more. Effects have a minus sign here. For the sample, strong results were picked, then their nearest neighbours and some compounds at random.
Provide the reading as a plain figure in %.

COMPOUND	OBSERVED RESULT
O=C(OCCOCCN=C1NS(=O)(=O)c2ccccc21)c1ccccc1	2.47
Cc1cc(SCC(=O)NCCN2C(=O)CSC2=O)nc2c(C)cccc12	0.207
Cc1cc(C)cc(NC(=O)C2CCCN(S(=O)(=O)c3c(C)noc3C)C2)c1 (centres unmarked)	-4.34
CCCn1c(O)c(CN2CCCCC2)c(C)c(C#N)c1=O	15.5

Record COc1ccc(N2C(=O)C3C4C=CC(CC4)C3C2=O)c([N+](=O)[O-])c1 (centres unmarked) . Reported hERG current change (%, negative = inhibition) at 10uM: -5.27

###

Listing of recorded hERG current change (%, negative = inhibition) at 10uM by entry.
# TESTED TARGET: human ether-à-go-go-related gene (hERG) potassium channel (human);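 note: peak tail current of the secondary pulse compared with the same well before compound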
# MEASUREMENT PROTOCOL: primary screen, population patch clamp on CHO cells stably expressing hERG; higher = less effect of the substance
The whole screen tested about 310,000 compounds, of which about 14,000 (4.5%) showed an effect of 50% or more. The effect is printed as a negative number. The sample holds strong results, similar compounds and a random draw of the others, so the mix is not that of the screen.
Number plus unit, in that order.

Some entries whose results are on file:
COMPOUND	OBSERVED RESULT
CCC1CCCCN1C(=O)c1ccc(OC2CCN(Cc3ccccn3)CC2)cc1 (stereo not shown)	5.27%
O=C(O)CN1C(=O)/C(=C\c2ccccc2OCc2ccc(Cl)cc2)SC1=S	15.3%

Record CSc1ncc(Cl)c(C(=O)Nc2ccccc2C)n1 . Reported hERG current change (%, negative = inhibition) at 10uM: 6.48%

Record N=C1N(/N=C/c2ccccc2)C(=Nc2ccccc2)C(=S)N1c1ccccc1 . Reported hERG current change (%, negative = inhibition) at 10uM: 2.03%

Record CCOC(=O)c1ccc(N=C2C(=S)N(c3ccc(C(=O)OCC)cc3)C(=N)N2/N=C/c2ccccc2)cc1 . Reported hERG current change (%, negative = inhibition) at 10uM: -52.7%

Record O=C(c1ccco1)N1CCN(S(=O)(=O)c2ccc(Cl)cc2)CC1 . Reported hERG current change (%, negative = inhibition) at 10uM: 2.47%

Record COc1ccc(C2=NC(CO)(CO)CO2)cc1 . Reported hERG current change (%, negative = inhibition) at 10uM: 19%

Record Cc1ccc(N=C2C(=S)N(c3ccc(C)cc3)C(=N)N2/N=C/c2ccc(Cl)cc2)cc1 . Reported hERG current change (%, negative = inhibition) at 10uM: -6.29%

Record CN(C)CCCN(C(=O)c1ccc(Br)s1)c1nc2cc3c(cc2s1)OCO3.Cl . Reported hERG current change (%, negative = inhibition) at 10uM: -52%

Record Cc1cccnc1NC(=S)NCc1ccco1 . Reported hERG current change (%, negative = inhibition) at 10uM: -2.97%

Hey, just so you know, these numbers are from paper PMC4336329.
